Values from patent EP0755928B1

Recorded response vs control in vivo at 25 mg/kg, one value per entry.
- System: estrogen-dependent human mammary cancer MCF-7
- test_details: Antitumor effects against estrogen-dependent human mammary cancer MCF-7 transplanted in nude mice
- Assay type: in vivo, female BALB/c-nu/nu mouse
- condition_description: Mus musculus, MCF7, po; dose 25 mg/kg orally, 5 days per week for two weeks; ratio of V/V0 of treated group to control group; judgement date day 14 to 25, differs per compound; read-out: T/C
Just the number plus its unit, please.

# get_value(readout='response vs control in vivo at 25 mg/kg', item= Nc1ccc(-c2cc(=O)c3c(N)c(F)c(COC(=O)CN4CCOCC4)c(F)c3o2)cc1F )
4.4%

# input molecule: CN(C)CC(=O)OCc1c(F)c(N)c2c(=O)cc(-c3ccc(N)c(F)c3)oc2c1F ; wanted: its response vs control in vivo at 25 mg/kg
1.2%

Would you kindly share the measured response vs control in vivo at 25 mg/kg for CN1CCN(CC(=O)OCc2c(F)c(N)c3c(=O)cc(-c4ccc(N)c(F)c4)oc3c2F)CC1 ?
7%

What does the data say about its response vs control in vivo at 25 mg/kg? Entry: COC(=O)CNCC(=O)OCc1c(F)c(N)c2c(=O)cc(-c3ccc(N)c(F)c3)oc2c1F
1.3%
